// data source = the supplement of paper PMC11208160

# ASSAY DETAILS: recombinant barcode read abundance after kanamycin selection (control-corrected) (log10(CPM+1)); higher = more efficient recombination; sequences stand for … in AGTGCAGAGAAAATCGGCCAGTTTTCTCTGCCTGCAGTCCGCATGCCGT…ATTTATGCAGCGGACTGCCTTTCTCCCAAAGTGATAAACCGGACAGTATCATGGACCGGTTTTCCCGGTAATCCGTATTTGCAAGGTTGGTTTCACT; site = the 11-nt target
QUANTITY MEASURED: recombinant barcode read abundance (log10)
Numbers only.

AGTCTTACTTGGGTTCTAACCTGTTGCCACA [AGTCTTACTTG_LTGcore_CT_RTGcore_TG] (site AGTCTTACTTG) (LTG core: CT, RTG core: TG) :: 0.032
GGGCGGAACTGGGTTCTAACCTGTTGCGGGT [GGGCGGACTCC_LTGcore_AC_RTGcore_AC] (site GGGCGGACTCC) (LTG core: AC, RTG core: AC) :: 0.3

Here is another sequence to look at.
Exercise: Using known records, supply recombinant barcode read abundance (log10) for CGCGCCCGGTGGGTTCTAACCTGTTGCGGAG [CGCGCCCCTCC_LTGcore_GG_RTGcore_CT] (site CGCGCCCCTCC) (LTG core: GG, RTG core: CT)
Solution: 0.557

* * *

# ASSAY DETAILS: recombinant barcode read abundance after kanamycin selection (control-corrected) (log10(CPM+1)); higher = more efficient recombination; sequences stand for … in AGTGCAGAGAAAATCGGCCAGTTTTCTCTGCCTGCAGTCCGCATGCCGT…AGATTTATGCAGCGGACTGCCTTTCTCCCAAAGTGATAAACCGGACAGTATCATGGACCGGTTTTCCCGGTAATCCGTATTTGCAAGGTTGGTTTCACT; site = the 11-nt target
Class assignment keyed on recombinant barcode read abundance (log10), ranges lower range: < 0.1; middle range: ≥ 0.1 and < 0.5; upper range: ≥ 0.5

Below, 6 sequences whose answers are already recorded.
CAAAGATCTTGGGTTCTAACCTGTTGCTT (site CATAGATCTAA) :: middle range
TACTATACTTGGGTTCTAACCTGTTGCCT (site TACTATACTAG) :: middle range
ACTGGGTCTTGGGTTCTAACCTGTTGCGT (site ACATGGTCTAC) :: middle range
CCACGAACTTGGGTTCTAACCTGTTGCTT (site CCACGAACTAA) :: lower range
AGCATTCCTTGGGTTCTAACCTGTTGCCT (site AGCAGTGCTAG) :: middle range
GCGTACTCTTGGGTTCTAACCTGTTGCCT (site GCGTACTCTAG) :: upper range

Exercise: Could you place GGGTTCACTTGGGTTCTAACCTGTTGCCG (site GGGTTCACTCG) in its proper category? Many thanks.
Solution: upper range

Exercise: Could you place CAGCTAACTTGGGTTCTAACCTGTTGCCT (site CAAATAACTAG) in its proper category? Many thanks.
Solution: lower range

Exercise: Could you place GAGTATTCTTGGGTTCTAACCTGTTGCCT (site GAATATTCTAG) in its proper category? Many thanks.
Solution: upper range

Exercise: Could you place CAAAGTGCTTGGGTTCTAACCTGTTGCCT (site CAAAGTGCTAG) in its proper category? Many thanks.
Solution: upper range

* * *

# ASSAY DETAILS: recombinant UMI read abundance after kanamycin selection (control-corrected) (log10(CPM+1)); higher = more efficient recombination; extreme values may be limits of the assay; sequences stand for … in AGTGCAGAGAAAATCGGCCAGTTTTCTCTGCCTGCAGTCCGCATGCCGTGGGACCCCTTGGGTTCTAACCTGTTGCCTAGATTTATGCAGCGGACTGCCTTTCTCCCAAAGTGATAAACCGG…AGGTTGGTTTCACT; site = the 11-nt donor
QUANTITY MEASURED: recombinant UMI read abundance (log10)
Numbers only.

Consider the following illustrative entries.
TCAGACTCATGGACCGGTTTTCCCGGTAATCCGTATTTGCA (site TCAGACTCTTG) :: 2.95
GCGAAAACATGGACCGGTTTTCCCGGTAATCCGTATTTGCT (site GCGAACACTAG) :: 0.232
CAAGTCACATGGACCGGTTTTCCCGGTAATCCGTATTTGGC (site CAAGTCACTAC) :: 0.739
CGATGATCATGGACCGGTTTTCCCGGTAATCCGTATTTGAT (site CGATGATCTAT) :: 2.44
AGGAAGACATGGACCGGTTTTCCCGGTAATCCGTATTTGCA (site AGGAAAACTTA) :: 0
ATGCTTCCATGGACCGGTTTTCCCGGTAATCCGTATTTGCA (site ATGCTTCCTTG) :: 1.47
GGATGGCCATGGACCGGTTTTCCCGGTAATCCGTATTTGCA (site GGATGGCCTTG) :: 0.0128
CTTCTCTCATGGACCGGTTTTCCCGGTAATCCGTATTTGAA (site CTTCTCTCTTG) :: 0
CTCTACACATGGACCGGTTTTCCCGGTAATCCGTATTTGCT (site CTCTATACTAG) :: 0.00765
CAACTAACATGGACCGGTTTTCCCGGTAATCCGTATTTGGA (site CGACTAACTTC) :: 0.548

I'm hoping you can list recombinant UMI read abundance (log10) for every sequence here, please.
1. CGAGGAGCATGGACCGGTTTTCCCGGTAATCCGTATTTGGG (site CGAGGAGCTCC)
2. AGGACTACATGGACCGGTTTTCCCGGTAATCCGTATTTGAG (site AGGACTACTTT)
3. TCAGACTCATGGACCGGTTTTCCCGGTAATCCGTATTTGCA (site TCATACTCTTG)
4. AGCCTTTCATGGACCGGTTTTCCCGGTAATCCGTATTTGGC (site AGCCTTTCTGT)
5. CAGGGGTCATGGACCGGTTTTCCCGGTAATCCGTATTTGAA (site CAGGGGTCTTT)

Solution:
0.918
0.493
0.807
0
3.02

I'm hoping you can list recombinant UMI read abundance (log10) for every sequence here, please.
1. AAATTCCCATGGACCGGTTTTCCCGGTAATCCGTATTTGGT (site AAATTCCCTAC)
2. CTGTCGACATGGACCGGTTTTCCCGGTAATCCGTATTTGGG (site CTGTCGACTCC)
3. GTTGTATCATGGACCGGTTTTCCCGGTAATCCGTATTTGAC (site GTTGTATCTGT)
4. GGCAAGCCATGGACCGGTTTTCCCGGTAATCCGTATTTGAA (site GGCAAACCTTT)
5. AGCTAGACATGGACCGGTTTTCCCGGTAATCCGTATTTGGG (site ACCTAGACTCC)
6. TCCTAGTCATGGACCGGTTTTCCCGGTAATCCGTATTTGTA (site TCCTAGTCTTA)

Solution:
1. 0
2. 0.0289
3. 2.18
4. 0
5. 0.239
6. 0.256

* * *

# ASSAY DETAILS: recombinant UMI read abundance after kanamycin selection (control-corrected) (log10(CPM+1)); higher = more efficient recombination; extreme values may be limits of the assay; sequences stand for … in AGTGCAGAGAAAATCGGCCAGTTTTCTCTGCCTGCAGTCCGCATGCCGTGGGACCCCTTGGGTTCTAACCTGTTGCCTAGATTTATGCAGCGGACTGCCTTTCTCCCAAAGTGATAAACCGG…AGGTTGGTTTCACT; site = the 11-nt donor
Field: recombinant UMI read abundance (log10). Provide a value for each of the sequences that follow.

Consider the following illustrative entries.
CGTTAGGCATGGACCGGTTTTCCCGGTAATCCGTATTTGAG (site CGTTAGTCTCT) :: 0.173
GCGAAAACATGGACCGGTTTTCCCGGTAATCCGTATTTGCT (site GCGATAACTAG) :: 0.603
CGTTCGGCATGGACCGGTTTTCCCGGTAATCCGTATTTGCT (site CGTTGGGCTAG) :: 0.00466
CTGCTCCCATGGACCGGTTTTCCCGGTAATCCGTATTTGCT (site CTGCTGCCTAG) :: 0
TAGCTAGCATGGACCGGTTTTCCCGGTAATCCGTATTTGAA (site TATCTAGCTTT) :: 0.0236
ATAACGCCATGGACCGGTTTTCCCGGTAATCCGTATTTGAC (site ATAAGGCCTGT) :: 0
GTAGGTACATGGACCGGTTTTCCCGGTAATCCGTATTTGAG (site GTAGGTACTCT) :: 1.29
GACAATCCATGGACCGGTTTTCCCGGTAATCCGTATTTGAA (site GGCAATCCTTT) :: 0.0165
ACAAGTTCATGGACCGGTTTTCCCGGTAATCCGTATTTGTC (site ACAAGTTCTGA) :: 0
AATGCCTCATGGACCGGTTTTCCCGGTAATCCGTATTTGAG (site AATGCCTCTCT) :: 0.693

I'm hoping you can list recombinant UMI read abundance (log10) for every sequence here, please.
1. TCAGGCACATGGACCGGTTTTCCCGGTAATCCGTATTTGGC (site TCAGGCACTGC)
2. CTGGAAGCATGGACCGGTTTTCCCGGTAATCCGTATTTGCA (site CTGGAACCTTG)
3. AACACCTCATGGACCGGTTTTCCCGGTAATCCGTATTTGAT (site AACACCTCTAT)

Solution:
[0.89, 0, 1.76]
